- target: Aldo-keto reductase family 1 member A1 (Rattus norvegicus, UniProt P51635)
- Sequence (P51635 whole entry, looked up): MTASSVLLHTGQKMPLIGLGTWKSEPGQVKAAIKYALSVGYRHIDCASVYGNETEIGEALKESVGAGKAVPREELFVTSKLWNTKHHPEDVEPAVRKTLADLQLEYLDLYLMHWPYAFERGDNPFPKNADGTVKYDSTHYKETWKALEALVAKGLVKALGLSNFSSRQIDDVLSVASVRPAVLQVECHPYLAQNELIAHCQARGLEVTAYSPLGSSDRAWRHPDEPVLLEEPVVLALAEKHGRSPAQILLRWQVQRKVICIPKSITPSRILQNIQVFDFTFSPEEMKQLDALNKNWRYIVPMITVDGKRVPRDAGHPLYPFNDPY
measured-property: IC50

Quick one: IC50 of O=C(O)CC1CN(Cc2cc(F)c(F)cc2F)S(=O)(=O)c2ccccc21 (racemic) ?
> 10 µM

----------
- target: Aldo-keto reductase family 1 member B1 (Rattus norvegicus)
measured-property: pIC50
Keep in mind that pIC50 stands for -log10 of concentration in molar terms.

Quick one: pIC50 of O=C(O)/C=C1\CN(Cc2cccc([N+](=O)[O-])c2)S(=O)(=O)c2ccccc21 (mixture of isomers) ?
6.85

Then this molecule: O=C(O)/C=C1\CN(Cc2ccc(C(F)(F)F)cc2)S(=O)(=O)c2ccccc21 (mixture of isomers)
5.21

Then this molecule: O=C(O)/C=C1\CN(Cc2cc(F)c(F)cc2F)S(=O)(=O)c2ccccc21 (mixture of isomers)
6.23

Then this molecule: O=C(O)/C=C1\CN(Cc2ccc(Br)cc2F)S(=O)(=O)c2ccccc21 (mixture of isomers)
6.96

We now examine a further molecule.
Quick one: pIC50 of O=C(O)/C=C1\CN(Cc2ccccc2F)S(=O)(=O)c2ccccc21 (mixture of isomers) ?
5.67
